Data origin, for the record: the supplement of paper PMC12420376

System: KURAMOCHI
Experiment: drug sensitivity score (DSS2) on cancer cell count; higher = more sensitive; extreme values may be limits of the assay
Conditions: co-cultured fibroblast: WI38; 72 h
Catalogue of drug sensitivity score readings, one per entry.

{"columns": ["compound", "drug sensitivity score"],
 "data": [
  ["COCC1(CO)C(=O)C2CCN1CC2 (stereo not drawn)", "0 DSS"],
  ["CCc1cncnc1N1CCN(Cc2nc3ccc(C(F)(F)F)cc3[nH]2)CC1", "0 DSS"],
  ["O=C(O)c1ccc(CN2CCC(CN[C@@H]3C[C@H]3c3ccccc3)CC2)cc1", "0 DSS"],
  ["CC(C)N(C[C@H]1O[C@@H](n2cnc3c(N)ncnc32)[C@H](O)[C@@H]1O)[C@H]1C[C@@H](CCc2nc3cc(C(C)(C)C)ccc3[nH]2)C1", "0 DSS"],
  ["COc1cc2c(Nc3ccc(Cl)c(Cl)c3F)ncnc2cc1OC[C@@H]1C[C@@H]2CN(C)C[C@@H]2C1", "1.4 DSS"],
  ["COc1cc2ncnc(Nc3ccc(F)c(Cl)c3)c2cc1OCCCN1CCOCC1", "3 DSS"],
  ["COc1cc2c(Oc3ccc4[nH]c(C)cc4c3F)ncnc2cc1OCCCN1CCCC1", "0 DSS"],
  ["C=CCc1cccc(/C=N/NC(=O)CN2CCN(Cc3ccccc3)CC2)c1O", "3.3 DSS"]
]}

----------
System: KURAMOCHI
Assay: drug sensitivity score (DSS2) on cancer cell count; higher = more sensitive; extreme values may be limits of the assay
Conditions: co-cultured fibroblast: WI38; 72 h
assay metric: drug sensitivity score

{"columns": ["compound", "test target", "result"],
 "data": [
  ["COc1cc2c(cc1-c1c(C)noc1C)ncc1[nH]c(=O)n([C@H](C)c3ccccn3)c12", "KURAMOCHI", "9.4 DSS"],
  ["Oc1ncnc2[nH]ncc12", "KURAMOCHI", "0 DSS"],
  ["CC1(C)C(C(=O)Nc2ccc(S(=O)(=O)c3ccc(NC(=O)C4C(C)(C)C4(C)C)cc3)cc2)C1(C)C", "KURAMOCHI", "1.9 DSS"],
  ["CN(Cc1cnc2nc(N)nc(N)c2n1)c1ccc(C(=O)N[C@@H](CCC(=O)O)C(=O)O)cc1 [Methotrexate]", "KURAMOCHI", "0 DSS"]
]}

----------
System: KURAMOCHI
Assay: drug sensitivity score (DSS2) on cancer cell count; higher = more sensitive; extreme values may be limits of the assay
Details: co-cultured fibroblast: BJHTERT; 72 h
Catalogue of drug sensitivity score readings, one per entry.
assay metric: drug sensitivity score (DSS)

{"columns": ["molecule", "assay metric", "numeric readout"],
 "data": [
  ["CC[C@@]1(O)C(=O)OCc2c1cc1n(c2=O)Cc2cc3c(CN(C)C)c(O)ccc3nc2-1 [Topotecan]", "drug sensitivity score", 20.9],
  ["O=C1CCC(N2C(=O)c3ccccc3C2=O)C(=O)N1 (stereo not drawn) [Thalidomide]", "drug sensitivity score", 0],
  ["CCNCCS(=O)(=O)NC[C@@]1(c2ccccc2)SC(NC(=O)C(C)(C)C)=NN1C(=O)C(C)(C)C [Litronesib]", "drug sensitivity score", 19.2],
  ["O=c1[nH]c(C2CCCN2)nc2c1oc1ccc(Cl)cc12 (stereo not drawn)", "drug sensitivity score", 2.2],
  ["O=C(O)C(=O)O.[NH-][C@@H]1CCCC[C@H]1[NH-].[Pt+2] [Oxaliplatin]", "drug sensitivity score", 9.3],
  ["COc1cc(C(=O)O)ccc1NC(=O)[C@@H]1N[C@@H](CC(C)(C)C)[C@](C#N)(c2ccc(Cl)cc2F)[C@H]1c1cccc(Cl)c1F [Idasanutlin]", "drug sensitivity score", 0],
  ["CCCc1cc(C)[nH]c(=O)c1CNC(=O)c1cc(-c2ccnc(N3CCN(C)CC3)c2)cc2c1cnn2C(C)C [GSK343]", "drug sensitivity score", 0],
  ["Cc1cnc(NC(=O)Nc2cc(Br)c(C)cc2OC[C@@H]2CNCCO2)cn1 [Rabusertib]", "drug sensitivity score", 0.4]
]}

----------
System: KURAMOCHI
Experiment: drug sensitivity score (DSS2) on cancer cell count; higher = more sensitive; extreme values may be limits of the assay
Settings: co-cultured fibroblast: BJHTERT; 72 h

{"columns": ["molecule", "test target", "output unit", "drug sensitivity score"],
 "data": [
  ["COc1cccc(-c2ccc(NC(=O)C3=C(C(=O)O)CCC3)c(F)c2)c1", "KURAMOCHI", "DSS", 1.5],
  ["CC(C)(C)Cn1c(N)nc2ccc(-c3[nH]c(C(C)(C)C)nc3-c3ccc(F)cc3)nc21", "KURAMOCHI", "DSS", 10.8],
  ["CN[C@@H](C)C(=O)N[C@H](C(=O)N1CCC[C@H]1c1nc(C(=O)c2ccc(F)cc2)cs1)C1CCCCC1", "KURAMOCHI", "DSS", 4],
  ["COc1ccc(-c2nc(N3CCOCC3)c3sc(CN(C)c4ncc(C(=O)NO)cn4)cc3n2)cn1", "KURAMOCHI", "DSS", 34.1],
  ["Cc1ncc(-c2ccnc(Nc3ccc(S(C)(=O)=O)cc3)n2)n1C(C)C", "KURAMOCHI", "DSS", 17.8],
  ["CNCc1ccc(-c2[nH]c3cc(F)cc4c3c2CCNC4=O)cc1", "KURAMOCHI", "DSS", 3.7],
  ["CC(C)Nc1cc(-c2c[nH]c(C(=O)N[C@H](CO)c3cccc(Cl)c3)c2)c(Cl)cn1", "KURAMOCHI", "DSS", 9.7],
  ["CN(C(=O)c1ccc(F)cc1C(F)(F)F)C1CCN(c2nnc(-c3ccnn3C)c3ccccc23)CC1", "KURAMOCHI", "DSS", 0],
  ["O=C(O)CCCCC(CCSCc1ccccc1)SCc1ccccc1 (stereo unspecified)", "KURAMOCHI", "DSS", 0],
  ["Cc1c(N)nc([C@H](CC(N)=O)NC[C@H](N)C(N)=O)nc1C(=O)N[C@H](C(=O)N[C@H](C)[C@@H](O)[C@H](C)C(=O)N[C@H](C(=O)NCCc1nc(-c2nc(C(=O)NCCC[S+](C)C)cs2)cs1)[C@@H](C)O)[C@@H](OC1OC(CO)C(O)C(O)C1OC1OC(CO)C(O)C(OC(N)=O)C1O)c1cnc[nH]1 (stereo partly specified)", "KURAMOCHI", "DSS", 13.5],
  ["COc1cc2c(Oc3ccc4[nH]c(C)cc4c3F)ncnc2cc1OCCCN1CCCC1", "KURAMOCHI", "DSS", 0],
  ["O[C@H]1CC[C@H](Nc2ncc3nc(Nc4c(F)cc(F)cc4F)n([C@H]4CCOC4)c3n2)CC1", "KURAMOCHI", "DSS", 2],
  ["O=C(O)c1ccc(-c2c[nH]c3ncc(-c4ccccc4)cc23)cc1C1CCCC1", "KURAMOCHI", "DSS", 6.8],
  ["COc1cc(OC)cc(N(CCNC(C)C)c2ccc3ncc(-c4cnn(C)c4)nc3c2)c1", "KURAMOCHI", "DSS", 0],
  ["Nc1ncnc2c1nc(N)n2[C@@H]1O[C@H](CO)[C@@H](O)[C@H]1O", "KURAMOCHI", "DSS", 21],
  ["O=C(c1ccc(C(=O)N2CCC(N3CCCC3)CC2)c(Nc2ccccc2)c1)N1CCC(N2CCCC2)CC1", "KURAMOCHI", "DSS", 0],
  ["CC(=O)Nc1cccc(-n2c(=O)n(C3CC3)c(=O)c3c(Nc4ccc(I)cc4F)n(C)c(=O)c(C)c32)c1", "KURAMOCHI", "DSS", 9],
  ["Oc1ncnc2[nH]ncc12", "KURAMOCHI", "DSS", 0],
  ["NS(=O)(=O)NCCNc1nonc1/C(=N/O)Nc1ccc(F)c(Br)c1", "KURAMOCHI", "DSS", 0],
  ["C=CCc1cccc(/C=N/NC(=O)CN2CCN(Cc3ccccc3)CC2)c1O", "KURAMOCHI", "DSS", 2.7],
  ["Cc1cc(Nc2cc(N3CCN(C)CC3)nc(/C=C/c3ccccc3)n2)n[nH]1", "KURAMOCHI", "DSS", 11.1],
  ["CN1CCN(C2CCN(C(=O)Nc3cc(Oc4ccc(NC(=O)C5(C(=O)Nc6ccc(F)cc6)CC5)c(F)c4)ccn3)CC2)CC1", "KURAMOCHI", "DSS", 0],
  ["Cc1cccc(CC(=O)N2CCc3c2ccc(-c2cn(C)c4ncnc(N)c24)c3F)n1", "KURAMOCHI", "DSS", 0.3],
  ["CNc1nc(-c2ccc3c(N)n[nH]c3c2)cc(N2C[C@@H](C(=O)NC3CCCCC3)CC[C@H]2C)n1", "KURAMOCHI", "DSS", 3.2],
  ["Cc1c(Cn2c(C)nc3c(C(=O)O)cc(N4CCOCC4)cc32)cccc1C(F)(F)F", "KURAMOCHI", "DSS", 5.5],
  ["S=C(NCc1ccc2c(c1)OCO2)N1CCN(c2ncnc3c2oc2ccccc23)CC1", "KURAMOCHI", "DSS", 2.5],
  ["Cc1cccc(-c2[nH]c(CNc3ccccc3F)nc2-c2ccc3ncnn3c2)n1", "KURAMOCHI", "DSS", 0],
  ["CC1(C)CC[C@]2(NC(=O)C(C)(F)F)CC[C@]3(C)[C@H](C(=O)C=C4[C@@]5(C)C=C(C#N)C(=O)C(C)(C)[C@@H]5CC[C@]43C)[C@@H]2C1", "KURAMOCHI", "DSS", 17.2],
  ["CCOc1ccn(-c2ccc(F)cc2)c(=O)c1C(=O)Nc1ccc(Oc2ccnc(N)c2Cl)c(F)c1", "KURAMOCHI", "DSS", 0.6],
  ["CC(C)(C)c1cc(NC(=O)Nc2ccc(Oc3ccnc4[nH]c(=O)cnc34)cc2F)n(-c2ccccc2)n1", "KURAMOCHI", "DSS", 10],
  ["CC[C@@H]1C(=O)N(C)c2cnc(Nc3ccc(C(=O)NC4CCN(C)CC4)cc3OC)nc2N1C1CCCC1", "KURAMOCHI", "DSS", 21.7]
]}
